# Assayed Target: full-length TcdA (TcdA1-2710) (Clostridioides difficile strain VPI10463, UniProt P16154 1-2710)
# Sequence (P16154 whole entry): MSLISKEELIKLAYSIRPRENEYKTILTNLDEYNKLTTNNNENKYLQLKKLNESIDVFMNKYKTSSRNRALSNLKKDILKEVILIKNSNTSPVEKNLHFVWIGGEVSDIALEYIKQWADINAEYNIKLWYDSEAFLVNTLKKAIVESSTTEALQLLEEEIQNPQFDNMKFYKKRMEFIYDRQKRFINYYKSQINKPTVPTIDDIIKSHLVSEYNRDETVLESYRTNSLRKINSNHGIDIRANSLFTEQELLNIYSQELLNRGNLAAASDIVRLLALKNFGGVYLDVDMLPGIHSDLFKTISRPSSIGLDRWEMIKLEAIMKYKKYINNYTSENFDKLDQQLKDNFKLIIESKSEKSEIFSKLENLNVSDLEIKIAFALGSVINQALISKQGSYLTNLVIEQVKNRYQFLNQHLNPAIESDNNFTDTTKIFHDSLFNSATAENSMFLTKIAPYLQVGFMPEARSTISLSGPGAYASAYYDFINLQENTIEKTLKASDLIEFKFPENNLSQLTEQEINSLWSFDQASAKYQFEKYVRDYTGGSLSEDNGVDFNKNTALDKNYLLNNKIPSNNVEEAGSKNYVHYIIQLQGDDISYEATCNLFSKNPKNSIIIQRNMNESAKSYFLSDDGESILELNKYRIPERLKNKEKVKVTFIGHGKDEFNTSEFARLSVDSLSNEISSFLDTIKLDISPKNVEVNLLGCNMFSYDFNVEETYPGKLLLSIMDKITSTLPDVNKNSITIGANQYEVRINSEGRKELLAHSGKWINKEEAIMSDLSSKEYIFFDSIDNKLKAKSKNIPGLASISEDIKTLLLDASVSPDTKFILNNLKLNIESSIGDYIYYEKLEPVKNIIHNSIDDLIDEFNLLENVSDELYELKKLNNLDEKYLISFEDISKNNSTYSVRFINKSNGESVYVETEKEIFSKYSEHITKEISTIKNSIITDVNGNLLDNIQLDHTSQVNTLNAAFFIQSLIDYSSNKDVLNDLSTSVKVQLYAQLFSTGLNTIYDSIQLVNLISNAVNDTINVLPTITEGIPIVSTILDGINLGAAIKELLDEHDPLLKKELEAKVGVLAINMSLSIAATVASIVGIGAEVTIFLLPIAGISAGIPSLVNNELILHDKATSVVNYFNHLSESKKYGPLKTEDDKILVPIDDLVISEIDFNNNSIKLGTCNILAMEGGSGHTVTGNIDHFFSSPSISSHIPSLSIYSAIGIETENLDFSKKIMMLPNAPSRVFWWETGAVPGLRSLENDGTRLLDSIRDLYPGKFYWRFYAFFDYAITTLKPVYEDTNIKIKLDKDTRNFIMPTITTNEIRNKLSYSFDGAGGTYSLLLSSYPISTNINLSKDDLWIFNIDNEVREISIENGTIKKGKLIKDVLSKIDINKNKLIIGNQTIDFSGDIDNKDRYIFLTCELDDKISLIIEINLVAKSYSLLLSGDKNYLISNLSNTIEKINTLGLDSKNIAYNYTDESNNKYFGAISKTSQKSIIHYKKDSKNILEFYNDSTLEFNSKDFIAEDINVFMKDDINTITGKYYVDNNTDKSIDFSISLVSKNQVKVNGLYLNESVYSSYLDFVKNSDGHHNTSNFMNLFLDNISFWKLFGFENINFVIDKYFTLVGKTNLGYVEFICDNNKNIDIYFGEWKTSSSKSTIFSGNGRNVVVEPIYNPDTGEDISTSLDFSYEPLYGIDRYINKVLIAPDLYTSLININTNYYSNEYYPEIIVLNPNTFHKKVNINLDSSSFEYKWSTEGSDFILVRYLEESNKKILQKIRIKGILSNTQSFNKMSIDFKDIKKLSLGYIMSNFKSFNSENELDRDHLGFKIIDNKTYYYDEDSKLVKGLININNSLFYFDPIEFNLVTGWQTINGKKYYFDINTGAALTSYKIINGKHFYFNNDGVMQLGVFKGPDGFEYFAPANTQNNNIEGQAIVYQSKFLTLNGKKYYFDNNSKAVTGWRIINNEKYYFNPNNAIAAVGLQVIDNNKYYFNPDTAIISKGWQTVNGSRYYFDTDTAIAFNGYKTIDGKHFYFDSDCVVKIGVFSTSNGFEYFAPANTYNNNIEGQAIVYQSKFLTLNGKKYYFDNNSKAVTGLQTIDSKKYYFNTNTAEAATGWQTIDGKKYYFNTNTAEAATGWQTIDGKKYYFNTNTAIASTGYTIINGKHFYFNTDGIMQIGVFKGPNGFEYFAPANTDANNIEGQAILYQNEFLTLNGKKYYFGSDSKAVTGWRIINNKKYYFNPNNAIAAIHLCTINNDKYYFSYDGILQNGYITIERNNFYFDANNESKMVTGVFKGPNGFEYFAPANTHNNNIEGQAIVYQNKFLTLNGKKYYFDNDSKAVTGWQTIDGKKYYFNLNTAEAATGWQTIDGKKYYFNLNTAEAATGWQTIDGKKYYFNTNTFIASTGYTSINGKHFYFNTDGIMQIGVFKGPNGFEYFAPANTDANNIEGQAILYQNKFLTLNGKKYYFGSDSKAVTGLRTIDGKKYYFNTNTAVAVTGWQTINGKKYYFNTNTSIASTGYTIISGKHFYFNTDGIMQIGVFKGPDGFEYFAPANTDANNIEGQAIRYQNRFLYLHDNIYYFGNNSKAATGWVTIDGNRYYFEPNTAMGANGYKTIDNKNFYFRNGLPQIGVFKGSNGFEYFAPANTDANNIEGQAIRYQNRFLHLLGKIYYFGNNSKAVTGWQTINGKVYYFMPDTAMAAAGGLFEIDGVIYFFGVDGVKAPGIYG
# Method: cell-based or functional assay
Readout Label: EC50 (nM), TcdA neutralization, Vero cells
Write it as a number; the unit nM goes unstated.

Provide only the value of recorded EC50 (nM), TcdA neutralization, Vero cells for A2B5 (VHH) VHH: QVQLQESGGGLVQAGGSLRLSCTPSERTFSAYTMAWYRQPPGKEREFAAGIKWSGSGGITLYADSVKGRFTISGDNAKSTVYLEMNSLKPEDTAVYYCTAGPTVYNPHYWGQGTQVTVSS
11.1

Origin of measurements: patent US20250179155A1
